Here the recorded TGI is given for each entry.
- Tested on: UACC-62 melanoma
- method: NCI tumour cell line growth inhibition, 48 h
All answers are understood in µM, so give the number only.

>  <structure smiles string>
O=C1c2c(Br)sc(Br)c2[C@@H](O)[C@H]1O

>  <TGI [µM]>
30.4

$$$$

[in] Give UACC-62 melanoma TGI for CN(C)c1ccc(-c2ccc(-c3ccc(C(=N)N)cn3)o2)cc1
[out] 3.34

[in] For the record CCOc1ccc2cc(-c3nn(CC4CCNCC4)c4ncnc(N)c34)ccc2c1 , what value of TGI is listed for UACC-62 melanoma?
[out] 32.1

* * *

TGI for assorted molecules
- Test system: SW-620 colon
- method: NCI tumour cell line growth inhibition, 48 h

Below: 5 molecules and their reported TGI.
>  <molecule>
CNC(=O)OCc1nc(SC)n(C)c1COC(=O)NC

>  <result>
685 µM

$$$$
>  <molecule>
COc1cc2cc(Oc3cccc(NC(=O)Nc4cc(C(F)(F)F)cc(C(F)(F)F)c4)c3)c(C)nc2cc1OC

>  <result>
5.71 µM

$$$$
>  <molecule>
N#C/C(=C(/O)CCl)c1nc2ccccc2o1

>  <result>
> 100 µM

$$$$
>  <molecule>
COc1ccc(CCn2cncn2)cc1

>  <result>
> 100 µM

$$$$
>  <molecule>
O=C1CSC(c2ccccc2O)N1c1ccc(-n2c(-c3ccccc3)nc3ccccc3c2=O)cc1 (stereo unspecified)

>  <result>
> 100 µM

$$$$

[in] Record request: TGI value, item O=C(O)CCCCC1CCSS1 (stereo unspecified)
[out] > 100 µM
